Tested on: MS2 coat protein
Assay: apparent KD of MS2 coat protein; designed switch direction (-1 OFF switch, 1 ON switch): 1; higher = weaker reporter binding
Conditions: input ligand: FMN 200 uM
// apparent KD of MS2 coat protein lookup, one value per entry

| input sequence | apparent KD of MS2 coat protein |
| --- | --- |
| UGCUUCGUGUAAGGAUAUGCAGCCGUUUCGGCUGCAGAAGGUACUAUAAUACAUGAGGAUCACCCAUGUCUCUCGCAUUGCGGG [salish99_SSng1_r04_303] (Eterna round: R96, puzzle: Same State NG 1) | 37.5 nM |
| CUGCUCGGGUGAGGAUAUGCCGCCGUUUCGGCUGCAGAAGGUGCUACGUUACAUGAGGAUCACCCAUGUCUCUGUUGUUUCGUG [salish99_SSNG1_r04_966] (Eterna round: R96, puzzle: Same State NG 1) | 108 nM |

This collection of values is drawn from the supplement of paper PMC9170038.
